B1: FUT8 (parent)
chain: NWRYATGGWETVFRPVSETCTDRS

# Variants of: B1
# assay-method-text: protein stability index of a GFP-peptide fusion (GPS, HEK-293T) (PSI 1-6); higher = more stable;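 also: lentivirally expressed fusions sorted by FACS into six bins by GFP to DsRed ratio, PSI derived from sequencing read proportions per bin multiplied by bin number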
# particulars: c terminus: a fixed tail appended
Class boundaries, taken from values of protein stability index, are as follows: bin 1 (below 2), bin 2 (2 to below 3), bin 3 (3 or more)

> print(dat)
    mutation.list  label.value
 1           V16G        bin 3
 2           T19I        bin 2
 3           S24L        bin 2
 4            A5K        bin 3
 5           R23M        bin 2
 6           S24I        bin 1
 7            W2Q        bin 3
 8           T21D        bin 1
 9           S17T        bin 1
10            G7F        bin 2
